Target: T1, Human CD3eg linker (human)
T1 construct: Single chain: CD3 epsilon and gamma subunits joined by a 29-mer linker, Flag-tag at the C-terminus; also called recombinant human CD3
T1 chain: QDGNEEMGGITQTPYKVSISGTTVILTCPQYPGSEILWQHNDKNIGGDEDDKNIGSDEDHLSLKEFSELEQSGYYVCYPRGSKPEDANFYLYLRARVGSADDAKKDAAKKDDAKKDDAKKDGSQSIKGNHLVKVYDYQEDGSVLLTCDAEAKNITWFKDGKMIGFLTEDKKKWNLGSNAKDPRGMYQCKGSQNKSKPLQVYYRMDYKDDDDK
Experiment: SPR Biacore T200, 25 C, Ab captured on anti-human Fc, antigen as analyte;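 note: Anti-Fc amine-coupled to a CM4 chip, recombinant human CD3 flowed over in 20 mM ACES buffer pH 7.4 with 150 mM NaCl and 0.05% Tween 20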

# BINDER, koff (s⁻¹)
measured = [
    ("H1550L0918 (antibody, V domains shown, Dual-Ig, IgG; also called H1550L918; dBBDu183H1550/dBBDu072L0918) VH: QVQLVESGGGLVQPGRSLRLSCAASGFKFSNVWMHWVRQAPGKGLEWVAQIKDKYNAYAAYYAPSVKGRFTISRDDSKNSIYLQMNSLKTEDTAVYYCHYIHYASASTLLPAFGVDAWGQGTTVTVSS VL: DIVMTQSPLSLPVTPGEPASISCQPSQEVVHMNNVVYLHWYQQKPGQAPRLLIYKVSNRFPGVPDRFSGSGSGTDFTLKISRVEAEDVGVYYCAQGTSHPFTFGQGTKLEIK", 0.00316),
    ("H1571L0581 (antibody, V domains shown, Dual-Ig, IgG; also called dBBDu183H1571/dBBDu072L0581) VH: QVQLVESGGGLVQPGRSLRLSCAASGFKFSNVWFHWVRQAPGKGLEWVAQIKDKYNAYATYYAPSVKGRFTISRDDSKNSIYLQMNSLKTEDTAVYYCHYVHYASASTLLPAFGVDAWGQGTTVTVSS VL: DIVMTQSPLSLPVTPGEPASISCQPSQEVVHMNRNTYLHWYQQKPGQAPRLLIYKVSNRFPGVPDRFSGSGSGTDFTLKISRVEAEDVGVYYCAQGTSHPFTFGQGTKLEIK", 0.0156),
    ("H1643L0581 (antibody, V domains shown, Dual-Ig, IgG; also called H1643L581; dBBDu183H1643/dBBDu072L0581) VH: QVQLVESGGGLVQPGRSLRLSCAASGFKFSNVWFHWVRQAPGKGLEWVAQIKDYYNAYAAYYAPSVKGRFTISRDDSKNSIYLQMNSLKTEDTAVYYCHYVHYASASTLLPAEGVDAWGQGTTVTVSS VL: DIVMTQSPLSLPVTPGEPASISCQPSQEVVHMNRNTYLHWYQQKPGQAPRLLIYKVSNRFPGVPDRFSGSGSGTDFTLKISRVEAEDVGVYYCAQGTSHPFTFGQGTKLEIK", 0.0251),
]
